test: Half life in human; type: ADME
MEASURED_PARAMETER: half-life (h)

(I) C[C@@H]1[C@H](c2c(F)ccc(F)c2F)C[C@H](NC(=O)c2cnc3c(c2)C[C@@]2(C3)C(=O)Nc3ncccc32)C(=O)N1CC(F)(F)F [ATOGEPANT]
(II) C[C@@H]1[C@H](c2ccccc2)C[C@H](NC(=O)c2cnc3c(c2)C[C@@]2(C3)C(=O)Nc3ncccc32)C(=O)N1CC(F)(F)F [UBROGEPANT]
**Q:** Please tell me which of the two, I or II , has the higher reported half-life value. Mark your selection by writing its label.
**A:** I
(I: 11 h, II: 5 h)
